# IC50 per record follows
target_or_test_system: Recombinant STAT6 protein (STAT6(W123-T658)) (Homo sapiens)
Construct: STAT6(W123-T658)
Sequence (P42226 123-658, species assumed): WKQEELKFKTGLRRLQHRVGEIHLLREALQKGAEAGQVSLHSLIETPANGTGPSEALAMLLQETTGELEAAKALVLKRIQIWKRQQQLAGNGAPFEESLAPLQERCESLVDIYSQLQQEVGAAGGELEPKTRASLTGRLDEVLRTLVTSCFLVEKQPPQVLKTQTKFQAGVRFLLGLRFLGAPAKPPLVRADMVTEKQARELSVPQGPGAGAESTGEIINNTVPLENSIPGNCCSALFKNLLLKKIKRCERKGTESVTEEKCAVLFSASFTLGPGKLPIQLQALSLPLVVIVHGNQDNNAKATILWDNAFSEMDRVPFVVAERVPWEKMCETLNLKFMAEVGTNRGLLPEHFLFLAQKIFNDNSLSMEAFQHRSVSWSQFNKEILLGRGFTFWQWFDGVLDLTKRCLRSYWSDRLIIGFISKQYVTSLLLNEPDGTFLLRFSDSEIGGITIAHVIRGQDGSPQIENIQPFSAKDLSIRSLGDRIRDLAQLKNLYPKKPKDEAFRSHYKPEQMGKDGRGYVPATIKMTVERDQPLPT
experiment: STAT6 Fluorescence Polarization (FP) Assay
Assay type: binding
condition_info: STAT6(W123-T658) 250 nM, probe 5-FAM-ApYKPFQDLI-NH2 2 nM, 45-minute incubation
Method: STAT6 Fluorescence Polarization (FP) Assay An FP assay was developed to determine IC50 values for test substances. […] Reaction components were mixed, and FP was measured after 45-minute incubation at room temperature using a Tecan Spark multimode plate reader. FP signal (mP) was plotted against the log concentration of the test substances and IC50 values were calculated by nonlinear regression analysis using GraphPad Prism software. […]

| compound | IC50 |
| --- | --- |
| O=C(N[C@H]1C[C@@H]2C[C@@H]2C[C@H]2CC[C@@H](C(=O)N[C@@H]3CCN(c4cccnc4)C3)N2C1=O)c1cc2cc(C(F)(F)P(=O)(O)O)ccc2s1 | 0.3 to 3 µM |
| C[C@@]12C[C@H]3CC[C@@H](C(=O)N4CC(c5cccnc5)C4)N3C(=O)[C@@H](NC(=O)c3cc4cc(C(F)(F)P(=O)(O)O)ccc4s3)C[C@@H]1C2 | 0.3 to 3 µM |
| N#C[C@@H]1[C@@H](c2cccnc2)CN(C(=O)[C@@H]2CC[C@@H]3C[C@H]4C[C@H]4C[C@H](NC(=O)c4cc5cc([C@H](F)P(=O)(O)O)ccc5s4)C(=O)N32)C12CC2 (single isomer, unassigned) | ≤ 0.3 µM |
| O=C(N[C@H]1C[C@@H]2C[C@@H]2C[C@H]2CC[C@@H](C(=O)N3CCN(C(=O)C4COC4)CC3)N2C1=O)c1cc2cc(C(F)(F)P(=O)(O)O)ccc2s1 | 0.3 to 3 µM |
| O=C(N[C@H]1C[C@@H]2C[C@@H]2C[C@H]2CC[C@@H](C(=O)N[C@@H]3CCN(c4cn[nH]c4)C3)N2C1=O)c1cc2cc(C(F)(F)P(=O)(O)O)ccc2s1 | 0.3 to 3 µM |
| Cn1cnnc1C1CN(C(=O)[C@@H]2CC[C@@H]3C[C@@H]4C[C@@H]4C[C@H](NC(=O)c4cc5cc(C(F)(F)P(=O)(O)O)ccc5s4)C(=O)N32)C1 | 3 to 30 µM |
| O=C(N[C@H]1C[C@@H]2C[C@@H]2C[C@H]2CC[C@@H](C(=O)N3CC(O)(c4ccccn4)C3)N2C1=O)c1cc2cc(C(F)(F)P(=O)(O)O)ccc2s1 | 3 to 30 µM |
| O=C(N[C@H]1C[C@@H]2C[C@@H]2C[C@H]2CC[C@@H](C(=O)N3CC4(CC(=O)c5nccn54)C3)N2C1=O)c1cc2cc(C(F)(F)P(=O)(O)O)ccc2s1 | 0.3 to 3 µM |
| CS(=N)(=O)CC1CN(C(=O)[C@@H]2CC[C@@H]3C[C@H]4C[C@H]4C[C@H](NC(=O)c4cc5cc(C(F)P(=O)(O)O)ccc5s4)C(=O)N32)C1 (some centres unmarked) | 3 to 30 µM |
| O=C(N[C@H]1C[C@H]2C[C@H]2C[C@H]2CC[C@@H](C(=O)N[C@H]3CN(c4cccnc4)C[C@@H]3F)N2C1=O)c1cc2cc(C(F)(F)P(=O)(O)O)ccc2s1 | 0.3 to 3 µM |
| Cc1ccncc1C1CN(C(=O)[C@@H]2CC[C@@H]3C[C@@H]4C[C@@H]4C[C@H](NC(=O)c4cc5cc(C(F)(F)P(=O)(O)O)ccc5s4)C(=O)N32)C1 | 0.3 to 3 µM |
| O=C(N[C@H]1C[C@@H]2C[C@@H]2C[C@H]2CC[C@@H](C(=O)N3CCOc4cc(F)ccc43)N2C1=O)c1cc2cc(C(F)P(=O)(O)O)ccc2s1 (some centres unmarked) | 3 to 30 µM |
| O=C(N[C@H]1C[C@@H]2C[C@@H]2C[C@H]2CC[C@@H](C(=O)N3CC(C(=O)N4CC[C@@H](O)C4)C3)N2C1=O)c1cc2cc(C(F)(F)P(=O)(O)O)ccc2s1 | 3 to 30 µM |
| CC(=O)N1CCC2(C1)CN(C(=O)[C@@H]1CC[C@@H]3C[C@H]4C[C@H]4C[C@H](NC(=O)c4cc5cc(C(F)(F)P(=O)(O)O)ccc5s4)C(=O)N31)C2 | 3 to 30 µM |
| N#C[C@H]1CN(C(=O)[C@@H]2CC[C@@H]3C[C@H]4C[C@H]4C[C@H](NC(=O)c4cc5cc(C(F)(F)P(=O)(O)O)ccc5s4)C(=O)N32)C[C@@]12C(=O)Nc1ccccc12 (single isomer, unassigned) | 0.3 to 3 µM |
| NC(=O)Cc1cc(-c2ccccc2)ccc1NC(=O)[C@@H]1CC[C@@H]2C[C@H]3C[C@H]3C[C@H](NC(=O)c3cc4cc(C(F)(F)P(=O)(O)O)ccc4s3)C(=O)N21 | 0.3 to 3 µM |
| CC(C)C1(c2ccccc2)CN(C(=O)[C@@H]2CC[C@@H]3C[C@@H]4C[C@@H]4C[C@H](NC(=O)c4cc5cc(C(F)(F)P(=O)(O)O)ccc5s4)C(=O)N32)C1 | 3 to 30 µM |
| O=C(N[C@H]1C[C@@H]2C[C@@H]2C[C@H]2CC[C@@H](C(=O)N3CC(c4cccnc4)C3)N2C1=O)c1cc2cc(C(F)(F)P(=O)(O)O)ccc2s1 [Compound 36] | 0.3 to 3 µM |
| O=C(N[C@H]1C[C@@H]2C[C@@H]2CC2CC[C@@H](C(=O)N3CC(c4cncnc4N4CCC4)C3)N2C1=O)c1cc2cc([C@@H](F)P(=O)(O)O)ccc2s1 (single isomer, unassigned) | 3 to 30 µM |
| O=C(N[C@H]1C[C@H]2C[C@H]2C[C@H]2CC[C@@H](C(=O)N3CC(N4CCS(=O)(=O)CC4)C3)N2C1=O)c1cc2cc(C(F)P(=O)(O)O)ccc2s1 (some centres unmarked) | 3 to 30 µM |

====

IC50 by entry:
target_or_test_system: Recombinant STAT3 protein (STAT3(G127-I722)) (Homo sapiens)
Construct: STAT3(G127-I722)
experiment: STAT3 Fluorescence Polarization (FP) Assay
Assay type: binding
condition_info: STAT3(G127-I722) 25 nM, probe 5-FAM-GpYLPQTV-NH2 2 nM, 45-minute incubation
Experimental: STAT3 Fluorescence Polarization (FP) Assay An FP assay was developed to determine IC50 values for test substances. […] Reaction components were mixed, and FP was measured after 45-minute incubation at room temperature using a Tecan Spark multimode plate reader. FP signal (mP) was plotted against the log concentration of the test substances and IC50 values were calculated by nonlinear regression analysis using GraphPad Prism software. […]
measurement_label: IC50

| compound | measured |
| --- | --- |
| O=C(N[C@H]1C[C@@H]2C[C@@H]2C[C@H]2CC[C@@H](C(=O)N[C@H]3CNC[C@@H]3F)N2C1=O)c1cc2cc(CP(=O)(O)O)ccc2s1 | 1 to 10 µM |
| C[C@H]1CN(C(=O)C2CN(C(=O)[C@@H]3CC[C@@H]4C[C@H]5C[C@H]5C[C@H](NC(=O)c5cc6cc(C(F)(F)P(=O)(O)O)ccc6s5)C(=O)N43)C2)CCO1 | < 0.1 µM |
| O=C(N[C@H]1C[C@H]2C[C@H]2C[C@H]2CC[C@@H](C(=O)N3CC(CC(F)F)(c4ccccc4)C3)N2C1=O)c1cc2cc(C(F)(F)P(=O)(O)O)ccc2s1 | < 0.1 µM |
| Cn1ccc2cncc(C3CN(C(=O)[C@@H]4CC[C@@H]5C[C@H]6C[C@H]6C[C@H](NC(=O)c6cc7cc([C@@H](F)P(=O)(O)O)ccc7s6)C(=O)N54)C3)c21 | 0.1 to 1 µM |
| N#C[C@@H]1CN(C(=O)[C@@H]2CC[C@@H]3[C@H]4C[C@H]4C[C@H](NC(=O)c4cc5cc(C(F)(F)P(=O)(O)O)ccc5s4)C(=O)N32)C[C@H]1c1ccccc1 (single isomer, unassigned) | 1 to 10 µM |

====

target_or_test_system: Recombinant STAT3 protein (STAT3(G127-I722)) (Homo sapiens, UniProt P40763)
Construct: STAT3(G127-I722)
Sequence (P40763 127-722, species assumed): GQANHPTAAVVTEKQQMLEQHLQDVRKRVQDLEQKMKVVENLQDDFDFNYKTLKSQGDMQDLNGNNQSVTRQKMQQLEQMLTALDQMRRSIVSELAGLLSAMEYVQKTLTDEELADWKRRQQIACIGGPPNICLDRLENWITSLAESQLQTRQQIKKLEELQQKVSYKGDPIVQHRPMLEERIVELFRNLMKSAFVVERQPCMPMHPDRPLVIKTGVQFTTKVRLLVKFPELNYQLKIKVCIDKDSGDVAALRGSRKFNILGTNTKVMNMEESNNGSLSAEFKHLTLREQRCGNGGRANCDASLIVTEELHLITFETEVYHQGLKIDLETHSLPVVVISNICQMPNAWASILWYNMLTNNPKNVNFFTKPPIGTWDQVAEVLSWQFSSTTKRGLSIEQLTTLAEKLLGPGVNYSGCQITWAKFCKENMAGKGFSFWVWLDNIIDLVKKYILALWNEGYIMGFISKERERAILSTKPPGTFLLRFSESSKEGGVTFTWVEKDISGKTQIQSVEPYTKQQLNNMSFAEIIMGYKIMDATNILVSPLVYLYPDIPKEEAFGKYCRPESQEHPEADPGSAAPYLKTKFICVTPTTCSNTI
experiment: STAT3 Fluorescence Polarization (FP) Assay
condition_info: STAT3(G127-I722) 25 nM, probe 5-FAM-GpYLPQTV-NH2 2 nM, 45-minute incubation

| molecule | IC50 |
| --- | --- |
| O=C(N[C@H]1C[C@H]2C[C@H]2C[C@H]2CC[C@@H](C(=O)N3CC(c4cnccc4O)C3)N2C1=O)c1cc2cc(C(F)P(=O)(O)O)ccc2s1 (stereo partly drawn) | < 100 nM |
| O=C(N[C@H]1C[C@@H]2C[C@@H]2C[C@H]2CC[C@@H](C(=O)N3CC(c4cnccc4F)C3)N2C1=O)c1cc2cc(C(F)P(=O)(O)O)ccc2s1 (stereo partly drawn) | < 100 nM |
| O=C(N[C@H]1C[C@@H]2C[C@@H]2C[C@H]2CC[C@@H](C(=O)N[C@@H]3CCN(C4CCOCC4)C3)N2C1=O)c1cc2cc(C(F)(F)P(=O)(O)O)ccc2s1 | 100 to 1000 nM |
| O=C(N[C@H]1C[C@@H]2C[C@@H]2C[C@H]2CC[C@@H](C(=O)N[C@H]3CN(c4cccnc4)C[C@@H]3F)N2C1=O)c1cc2cc(CP(=O)(O)O)ccc2s1 | 100 to 1000 nM |
| Cc1cc(C2CN(C(=O)[C@@H]3CC[C@@H]4C[C@H]5C[C@H]5C[C@H](NC(=O)c5cc6cc(C(F)P(=O)(O)O)ccc6s5)C(=O)N43)C2)on1 (stereo partly drawn) | 100 to 1000 nM |
| O=C(N[C@H]1C[C@@H]2C[C@@H]2C[C@H]2CC[C@@H](C(=O)N3CC(c4cnccc4F)C3)N2C1=O)c1cc2cc(CP(=O)(O)O)ccc2s1 | < 100 nM |
| N#C[C@@H]1CN(C(=O)[C@@H]2CC[C@@H]3C[C@H]4C[C@H]4C[C@H](NC(=O)c4cc5cc(C(F)(F)P(=O)(O)O)ccc5s4)C(=O)N32)C[C@H]1c1ccccc1 (relative stereo) | 100 to 1000 nM |
| O=C(N[C@H]1C[C@H]2[C@@H](C[C@H]3CC[C@@H](C(=O)N4CC(c5cccnc5)C4)N3C1=O)C2(F)F)c1cc2cc(C(F)(F)P(=O)(O)O)ccc2s1 | < 100 nM |
| C[C@@]12C[C@H](NC(=O)c3cc4cc(C(F)(F)P(=O)(O)O)ccc4s3)C(=O)N3[C@H](CC[C@H]3C(=O)N3CC(c4cccnc4)C3)[C@@H]1C2 | 100 to 1000 nM |
| O=C(N[C@H]1C[C@@H]2C[C@@H]2C[C@H]2CC[C@@H](C(=O)N3CC(c4cncnc4)C3)N2C1=O)c1cc2cc(C(F)(F)P(=O)(O)O)ccc2s1 | < 100 nM |
| O=C(N[C@H]1C[C@@H]2C[C@@H]2C[C@H]2CC[C@@H](C(=O)N3CCC34CCCC4)N2C1=O)c1cc2cc(C(F)P(=O)(O)O)ccc2s1 (stereo partly drawn) | 1000 to 10000 nM |
| O=C(N[C@H]1C[C@@H]2C[C@@H]2C[C@H]2CC[C@@H](C(=O)N3CC(c4ncccn4)C3)N2C1=O)c1cc2cc(C(F)(F)P(=O)(O)O)ccc2s1 | < 100 nM |
| O=C(N[C@H]1C[C@@H]2C[C@@H]2C[C@H]2CC[C@@H](C(=O)N3CC(Oc4ncccn4)C3)N2C1=O)c1cc2cc(CP(=O)(O)O)ccc2s1 | 1000 to 10000 nM |
| O=C(N[C@H]1C[C@@H]2C[C@@H]2C[C@H]2CC[C@@H](C(=O)N[C@@H]3CCN(c4ccccn4)C3)N2C1=O)c1cc2cc(C(F)(F)P(=O)(O)O)ccc2s1 | < 100 nM |
| Cc1cnc(N2C[C@H](NC(=O)[C@@H]3CC[C@@H]4C[C@H]5C[C@H]5C[C@H](NC(=O)c5cc6cc(C(F)P(=O)(O)O)ccc6s5)C(=O)N43)[C@@H](F)C2)n1C (stereo partly drawn) | < 100 nM |
| O=C(N[C@H]1C[C@@H]2C[C@@H]2C[C@H]2CC[C@@H](C(=O)N3CC(c4cnccc4N4CCC4)C3)N2C1=O)c1cc2cc([C@@H](F)P(=O)(O)O)ccc2s1 | < 100 nM |
| CC(=O)N1C[C@H](NC(=O)[C@@H]2CC[C@@H]3C[C@@H]4C[C@@H]4C[C@H](NC(=O)c4cc5cc(CP(=O)(O)O)ccc5s4)C(=O)N32)[C@@H](F)C1 | 1000 to 10000 nM |
| CO[C@@H]1CCN(C(=O)C2CN(C(=O)[C@@H]3CC[C@@H]4C[C@H]5C[C@H]5C[C@H](NC(=O)c5cc6cc(C(F)(F)P(=O)(O)O)ccc6s5)C(=O)N43)C2)C1 | < 100 nM |
| O=C(N[C@H]1C[C@@H]2C[C@@H]2C[C@H]2CC[C@@H](C(=O)N3C[C@H]4[C@@H]3CCN4c3cccnc3)N2C1=O)c1cc2cc(C(F)P(=O)(O)O)ccc2s1 (stereo partly drawn) | < 100 nM |
| CN(C)c1ccncc1C1CN(C(=O)[C@@H]2CC[C@@H]3C[C@H]4C[C@H]4C[C@H](NC(=O)c4cc5cc(C(F)(F)P(=O)(O)O)ccc5s4)C(=O)N32)C1 | < 100 nM |
| Cc1nc(N2C[C@H](NC(=O)[C@@H]3CC[C@@H]4C[C@H]5C[C@H]5C[C@H](NC(=O)c5cc6cc(C(F)P(=O)(O)O)ccc6s5)C(=O)N43)[C@@H](F)C2)n[nH]1 (stereo partly drawn) | 100 to 1000 nM |

Where these numbers come from: patent US20250215030A1
